src = the supplement of paper PMC11451515

- System: P12-Ichikawa
- Experiment Description: cell viability relative to DMSO control; higher = less cytotoxic
- Assay Setup: RPMI 5 mM glucose + 10% dialyzed FBS; 48 h; 0.000781 µM
Measured Attribute: cell viability

For the compound `C[C@]1(c2nc3c(C(N)=O)cccc3[nH]2)CCCN1` , what cell viability is on record?
78.1%

For the compound `CSCC[C@@H](NC(=O)[C@@H](Cc1ccccc1)NC(=O)CNC(=O)CNC(=O)[C@@H](N)Cc1ccc(O)cc1)C(=O)O` , what cell viability is on record?
85.1%

Others:
For the compound `CC(C)CC(=O)N[C@H](C(=O)N[C@H](C(=O)N[C@@H](CC(C)C)[C@@H](O)CC(=O)N[C@@H](C)C(=O)N[C@@H](CC(C)C)[C@@H](O)CC(=O)O)C(C)C)C(C)C` , what cell viability is on record?
98.1%

For the compound `CN(C)C1=CC=C(C=C1)C(C2=CC=C(C=C2)N(C)C)=C/3\C=C/C(/C=C3)=[N+](C)C` , what cell viability is on record?
110%

For the compound `C\C1=C(\C=C(\C#N)C(=O)N1)C2=CC=NC=C2` , what cell viability is on record?
94.6%

For the compound `Cc1cc(C(C)(C)C)c(O)c(C)c1CC1=NCCN1` , what cell viability is on record?
89.8%

For the compound `NC/1=N/C2=C([NH]C=N2)C(=S)N1` , what cell viability is on record?
105%

For the compound `Cc1cc2c(F)c(Oc3ncnn4cc(OC[C@@H](C)O)c(C)c34)ccc2[nH]1` , what cell viability is on record?
102%

For the compound `CC/1=C(/N2[C@H](SC1)[C@H](NC(=O)[C@H](N)\C3=C\C\C=C/C3)C2=O)C(O)=O` , what cell viability is on record?
111%

For the compound `CC1(C)O[C@@H]2C[C@H]3[C@@H]4CCC5=CC(=O)C=C[C@]5(C)[C@H]4[C@@H](O)C[C@]3(C)[C@]2(C(=O)CO)O1` , what cell viability is on record?
90.2%

For the compound `COC(=O)[C@@H]1[C@H]2C[C@H]3c4[nH]c5ccccc5c4CCN3C[C@@H]2CC[C@@H]1O` , what cell viability is on record?
103%

For the compound `COc1ccc(C(C)=O)c(O)c1` , what cell viability is on record?
103%

For the compound `CCC[C@H]1C[C@H](C(=O)N[C@@H]([C@@H]2O[C@@H](SC)[C@@H](O)[C@@H](O)[C@H]2O)[C@H](C)Cl)N(C)C1` , what cell viability is on record?
113%

For the compound `C=C(C)[C@H]1Cc2c(ccc3c2O[C@@H]2COc4cc(OC)c(OC)cc4[C@@H]2C3=O)O1` , what cell viability is on record?
98.6%

* * *

- System: SEM cells
- Experiment Description: cell viability relative to DMSO control; higher = less cytotoxic
- Assay Setup: RPMI 5 mM glucose + 10% FBS; 48 h; 46.1 µM
# 1 = cell viability below 90% (exclusive); -1 = cell viability at/above 90%

# strict comparison: is reported cell viability < 90%? input = `C[C@@H]1[C@H](O)[C@@H](C)/C=C/C=C/C=C/C=C/C=C/C=C/C=C/[C@H](O[C@@H]2O[C@H](C)[C@@H](O)[C@H](N)[C@@H]2O)C[C@@H]2O[C@](O)(C[C@@H](O)C[C@@H](O)[C@H](O)CC[C@@H](O)C[C@@H](O)CC(=O)O[C@H]1C)C[C@H](O)[C@H]2C(=O)O`
-1

Turning now to a further compound:
# strict comparison: is reported cell viability < 90%? input = `O=c1[nH]c2ccccc2n1C1CCN(Cc2ccc(-c3nc4cc5nc[nH]c5cc4nc3-c3ccccc3)cc2)CC1`
1
